concentration as compared to the initial value listing for selected compounds.
EXPERIMENTAL_PROTOCOL: Storage stability in solutions and hornbeam bark extracts (UHPLC-DAD)
Assay type: physicochemical
EXPERIMENTAL_CONTEXT: 23 weeks, −15 °C, EM (methanol extract of bark)
Marks after values point to notes of the source that are not given here.

Fill in: concentration as compared to the initial value of O=C1CCc2ccc(O)c(c2)-c2cc(ccc2O)C[C@H](O)[C@H](O)[C@H]1O is ___
99.6 ± 0.7 ^a %

More entries:
Fill in: concentration as compared to the initial value of O=C1C[C@H](O)[C@@H](O)Cc2ccc(O)c(c2)-c2cc(ccc2O)C[C@H]1O is ___
88.3 ± 3.4 ^#dfi %

Fill in: concentration as compared to the initial value of O=C1CCc2ccc(O)c(c2)-c2cc(ccc2O)C[C@@H](O)[C@H](O)C1 is ___
97.6 ± 3.2 ^bcd %

Fill in: concentration as compared to the initial value of O=C1CCC(=O)C(O)Cc2ccc(O)c(c2)-c2cc(ccc2O)C1 (stereo not shown) is ___
103.6 ± 3.5%

----------
System: HT-29 (colorectal carcinoma)
EXPERIMENTAL_PROTOCOL: In vitro antiproliferative activity, Alamar Blue assay
Format: cell-based
EXPERIMENTAL_CONTEXT: Homo sapiens; HT-29, 24 h treatment, then three days culture, n = 2; read-out: IC50 ± SD
pIC50: −log10 of the molar value.
pIC50 listing for selected molecules.

// below: answered molecules
Fill in: pIC50 of O=C1CCC(=O)C(O)Cc2ccc(O)c(c2)-c2cc(ccc2O)C1 (centres unmarked) is ___
< 4.00

Fill in: pIC50 of COc1cc([C@@H]2c3cc4c(cc3[C@@H](O[C@@H]3O[C@@H]5CO[C@@H](C)O[C@H]5[C@H](O)[C@H]3O)[C@H]3COC(=O)[C@H]23)OCO4)cc(OC)c1O [Etoposide, etoposide, reference compound] is ___
4.73

Fill in: pIC50 of O=C1CCc2ccc(O)c(c2)-c2cc(ccc2O)C[C@@H](O)[C@H](O)C1 is ___
< 4.00

Fill in: pIC50 of O=C1CCc2ccc(O)c(c2)-c2cc(ccc2O)C[C@H](O)[C@H](O)[C@H]1O is ___
< 4.00

# ---- query molecule ----
Fill in: pIC50 of O=C1C[C@H](O)[C@@H](O)Cc2ccc(O)c(c2)-c2cc(ccc2O)C[C@H]1O is ___
< 4.00

----------
EXPERIMENTAL_PROTOCOL: Storage stability in solutions and hornbeam bark extracts (UHPLC-DAD)
Assay type: physicochemical
EXPERIMENTAL_CONTEXT: 23 weeks, 22 °C, EE (ethyl acetate extract of bark)
Marks after values point to notes of the source that are not given here.
EXPERIMENTAL_ENDPOINT: concentration as compared to the initial value

Fill in: concentration as compared to the initial value of O=C1CCc2ccc(O)c(c2)-c2cc(ccc2O)C[C@@H](O)[C@H](O)C1 [Compound 3, giffonin X] is ___
95.7 ± 0.5 ^#cd %

Fill in: concentration as compared to the initial value of O=C1CCC(=O)C(O)Cc2ccc(O)c(c2)-c2cc(ccc2O)C1 (stereo not shown) [Compound 4] is ___
108.5 ± 2.7 %

Fill in: concentration as compared to the initial value of O=C1CCc2ccc(O)c(c2)-c2cc(ccc2O)C[C@H](O)[C@H](O)[C@H]1O [Compound 2, carpinontriol B] is ___
99.7 ± 0.5 ^a %

# ---- query molecule ----
Fill in: concentration as compared to the initial value of O=C1C[C@H](O)[C@@H](O)Cc2ccc(O)c(c2)-c2cc(ccc2O)C[C@H]1O [Compound 1, carpinontriol A] is ___
81.5 ± 3.9 ^#di %
